Data origin: paper PMC10864842

We begin with a simple list: items and their reported inhibition at 2 µM.
# target: KSP ATPase (Homo sapiens)
# Sequence (P52732 1-1056): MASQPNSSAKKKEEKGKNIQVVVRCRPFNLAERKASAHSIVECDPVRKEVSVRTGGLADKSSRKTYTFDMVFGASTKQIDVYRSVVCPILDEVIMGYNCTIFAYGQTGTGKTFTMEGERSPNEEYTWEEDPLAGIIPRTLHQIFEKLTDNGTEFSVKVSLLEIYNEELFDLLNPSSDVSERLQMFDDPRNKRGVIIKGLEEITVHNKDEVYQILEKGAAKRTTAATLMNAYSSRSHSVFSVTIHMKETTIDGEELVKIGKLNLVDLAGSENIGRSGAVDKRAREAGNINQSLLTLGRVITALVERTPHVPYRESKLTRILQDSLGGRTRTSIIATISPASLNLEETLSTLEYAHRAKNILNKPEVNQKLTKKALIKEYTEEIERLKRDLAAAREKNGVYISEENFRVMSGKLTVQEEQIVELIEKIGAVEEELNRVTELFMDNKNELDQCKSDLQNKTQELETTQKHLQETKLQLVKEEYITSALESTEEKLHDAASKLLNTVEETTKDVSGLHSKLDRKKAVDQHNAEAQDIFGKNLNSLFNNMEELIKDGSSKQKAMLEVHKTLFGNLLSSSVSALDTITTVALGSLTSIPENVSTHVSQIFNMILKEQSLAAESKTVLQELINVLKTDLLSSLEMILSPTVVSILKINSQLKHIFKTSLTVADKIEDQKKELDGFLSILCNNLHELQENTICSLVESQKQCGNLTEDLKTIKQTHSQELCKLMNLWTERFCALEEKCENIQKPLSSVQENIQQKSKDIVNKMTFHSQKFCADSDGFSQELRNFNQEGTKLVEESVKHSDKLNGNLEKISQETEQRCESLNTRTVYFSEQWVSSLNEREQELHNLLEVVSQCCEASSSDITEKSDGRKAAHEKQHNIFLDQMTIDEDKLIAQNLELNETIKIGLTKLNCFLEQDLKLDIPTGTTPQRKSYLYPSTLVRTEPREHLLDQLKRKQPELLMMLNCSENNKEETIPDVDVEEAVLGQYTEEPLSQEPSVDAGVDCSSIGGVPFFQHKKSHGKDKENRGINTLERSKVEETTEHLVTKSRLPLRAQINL
# assay overview: Microtubule-activated KSP ATPase end-point assay
# Assay type: biochemical
# stated conditions: read-out: KSP ATPase inhibition [%]
Just the number please, in %, no unit attached.

Examples with answers:
{"compound": "O=c1c2cc(Cl)ccc2nc(SCc2ccc(Br)cc2F)n1-c1ccc(F)cc1", "units of measure": "%", "reported": 92.6}
{"compound": "CCSc1nc2ccc(Cl)cc2c(=O)n1-c1ccc(F)cc1", "units of measure": "%", "reported": 88.3}
{"compound": "Cc1ccc(C(=O)N(CCCN)[C@@H](c2nc3cc(Cl)ccc3c(=O)n2Cc2ccccc2)C(C)C)cc1 [Ispinesib, reference compound]", "units of measure": "%", "reported": 95.5}
{"compound": "O=c1c2cc(Cl)ccc2nc(SCc2cc(C(F)(F)F)cc(C(F)(F)F)c2)n1-c1ccc(F)cc1", "units of measure": "%", "reported": 90.5}
{"compound": "O=c1c2cc(Cl)ccc2nc(SCc2ccc(F)cc2)n1-c1ccc(F)cc1", "units of measure": "%", "reported": 93.3}

Pending compound:
Prompt: Entry under review: `CC(C)=CCSc1nc2ccc(Cl)cc2c(=O)n1-c1ccc(F)cc1` . Reported inhibition at 2 µM?
Response: 89.6
